// provenance: patent US20140271734A1

# assayExplanation: Toxicokinetics of LUM001 free form, 13-week oral capsule toxicity study in dogs
# Assay type: in vivo, Beagle dogs
# assaySetup: male, Beagle, dog, plasma, oral, 5 mg/kg, Day 91; 5 mg/kg; M
attributeMeasured: Tmax (min)
Write the answer as a number in min, unit excluded.

# query: Tmax of entry CCCCC1(CCCC)CS(=O)(=O)c2ccc(N(C)C)cc2[C@@H](c2ccc(OCc3ccc(C[N+]45CCN(CC4)CC5)cc3)cc2)[C@H]1O [LUM001] 45

* * *

# assayExplanation: Toxicokinetics of LUM001 free form, 13-week oral gavage toxicity study in rats
# Assay type: in vivo
# assaySetup: male, CD IGS, rat, plasma, oral; Day 1; 75.0 mg/kg; M
attributeMeasured: Tmax (h)
// return numeric value only (unit: h, not printed)

Report Tmax for CCCCC1(CCCC)CS(=O)(=O)c2ccc(N(C)C)cc2[C@@H](c2ccc(OCc3ccc(C[N+]45CCN(CC4)CC5)cc3)cc2)[C@H]1O please. 5

* * *

# assayExplanation: Toxicokinetics of LUM001 free form, 13-week oral capsule toxicity study in dogs
# Assay type: in vivo, Beagle dogs
# assaySetup: male, Beagle, dog, plasma, oral, 5 mg/kg, Day 1; 5 mg/kg; M
attributeMeasured: Tmax (h)
Write down the numeric answer in h and omit the unit.

Tmax for CCCCC1(CCCC)CS(=O)(=O)c2ccc(N(C)C)cc2[C@@H](c2ccc(OCc3ccc(C[N+]45CCN(CC4)CC5)cc3)cc2)[C@H]1O [LUM001] ? 1.75

* * *

# assayExplanation: Toxicokinetics of LUM001 free form, 13-week oral capsule toxicity study in dogs
# Type: in vivo, Beagle dogs
# assaySetup: both sexes, Beagle, dog, plasma, oral, 5 mg/kg, Day 91; 5 mg/kg; Comb
attributeMeasured: Cmax (ng/mL)
Output spec: scalar in ng/mL, unitless text.

Consider the compound shown here: CCCCC1(CCCC)CS(=O)(=O)c2ccc(N(C)C)cc2[C@@H](c2ccc(OCc3ccc(C[N+]45CCN(CC4)CC5)cc3)cc2)[C@H]1O What is its recorded Cmax? 1.75

* * *

# assayExplanation: Toxicokinetics of LUM001 free form, 13-week oral capsule toxicity study in dogs
# Type: in vivo, Beagle dogs
# assaySetup: male, Beagle, dog, plasma, oral, 20 mg/kg, Day 91; 20 mg/kg; M
attributeMeasured: Cmax

So what does the record say about Cmax for CCCCC1(CCCC)CS(=O)(=O)c2ccc(N(C)C)cc2[C@@H](c2ccc(OCc3ccc(C[N+]45CCN(CC4)CC5)cc3)cc2)[C@H]1O ? 22.6 ng/mL

* * *

# assayExplanation: Toxicokinetics of LUM001 free form, 13-week oral gavage toxicity study in rats
# Type: in vivo
# assaySetup: female, CD IGS, rat, plasma, oral, 150 mg/kg, Day 1; 150 mg/kg; F; read-out: AUC(0-24 h)
# Protocol: Charles River CD IGS rats were assigned to treatment groups (9sex/toxicokinetic group) and were administered daily doses of 0, 5, 30, 75, and 150 mg/kg (males) or 0, 5, 30, 150, and 500 mg/kg (females). […] All animals were dosed with 10 mL/kg/day based on the most recently determined body weights. […] Plasma samples were stored at approximately −20° C. or lower until analyzed. The concentration of LUM001 free form in plasma were determined using an LCMSMS method. […]
attributeMeasured: AUC(0-t) (ng·h/mL)
Give just the number in ng·h/mL; leave the unit off.

What AUC(0-t) value was documented for this compound, CCCCC1(CCCC)CS(=O)(=O)c2ccc(N(C)C)cc2[C@@H](c2ccc(OCc3ccc(C[N+]45CCN(CC4)CC5)cc3)cc2)[C@H]1O ? 106

* * *

# assayExplanation: Toxicokinetics of LUM001 free form, 13-week oral gavage toxicity study in rats
# Type: in vivo
# assaySetup: female, Charles River CD IGS, rat, plasma, oral; Day 78; 30.0 mg/kg; F
attributeMeasured: Cmax (ng/mL)
Give the value, in units of ng/mL, as a plain number.

Name the reported Cmax value associated with the compound CCCCC1(CCCC)CS(=O)(=O)c2ccc(N(C)C)cc2[C@@H](c2ccc(OCc3ccc(C[N+]45CCN(CC4)CC5)cc3)cc2)[C@H]1O 3.95

* * *

# assayExplanation: Pharmacokinetics of LUM001 after oral solution and capsule in dogs
# Format: in vivo, Beagle dogs
# assaySetup: female, Beagle, dog, plasma, po, 7.5 mg/kg, oral solution 7.5 mg/kg free form, fed
attributeMeasured: Tmax (min)
I only need the number, in min, no unit after it.

Need Tmax, item CCCCC1(CCCC)CS(=O)(=O)c2ccc(N(C)C)cc2[C@@H](c2ccc(OCc3ccc(C[N+]45CCN(CC4)CC5)cc3)cc2)[C@H]1O [LUM001] 30

* * *

# assayExplanation: Toxicokinetics of LUM001 free form, 13-week oral gavage toxicity study in rats
# Format: in vivo
# assaySetup: male, Charles River CD IGS, rat, plasma, oral, 5 mg/kg, Day 78; 5.0 mg/kg; M; read-out: AUC(0-24 h)
# Protocol: Charles River CD IGS rats were assigned to treatment groups (9sex/toxicokinetic group) and were administered daily doses of 0, 5, 30, 75, and 150 mg/kg (males) or 0, 5, 30, 150, and 500 mg/kg (females). […] All animals were dosed with 10 mL/kg/day based on the most recently determined body weights. […] Plasma samples were stored at approximately −20° C. or lower until analyzed. The concentration of LUM001 free form in plasma were determined using an LCMSMS method. […]
attributeMeasured: AUC(0-t) (ng·h/mL)
// note: answer is a bare numeric in ng·h/mL

Given the compound CCCCC1(CCCC)CS(=O)(=O)c2ccc(N(C)C)cc2[C@@H](c2ccc(OCc3ccc(C[N+]45CCN(CC4)CC5)cc3)cc2)[C@H]1O , what is its reported AUC(0-t)? 11.1

* * *

# assayExplanation: Toxicokinetics of LUM001 free form, 13-week oral gavage toxicity study in rats
# Format: in vivo
# assaySetup: male, Charles River CD IGS, rat, plasma, oral, 75 mg/kg, Day 78; 75.0 mg/kg; M; read-out: AUC(0-24 h)
# Method: Charles River CD IGS rats were assigned to treatment groups (9sex/toxicokinetic group) and were administered daily doses of 0, 5, 30, 75, and 150 mg/kg (males) or 0, 5, 30, 150, and 500 mg/kg (females). […] All animals were dosed with 10 mL/kg/day based on the most recently determined body weights. […] Plasma samples were stored at approximately −20° C. or lower until analyzed. The concentration of LUM001 free form in plasma were determined using an LCMSMS method. […]
attributeMeasured: AUC(0-t)

For CCCCC1(CCCC)CS(=O)(=O)c2ccc(N(C)C)cc2[C@@H](c2ccc(OCc3ccc(C[N+]45CCN(CC4)CC5)cc3)cc2)[C@H]1O [LUM001] , what is its reported AUC(0-t)? 61.4 ng·h/mL

* * *

# assayExplanation: Pharmacokinetics of LUM001 after oral gavage in rats
# Type: in vivo
# assaySetup: both sexes, Sprague Dawley, rat, plasma, 30 mg/kg, single oral gavage 30 mg/kg free form, fasted, read-out: AUC(0-8 h)
attributeMeasured: AUC(0-t) (ng·h/mL)
Report the figure in ng·h/mL without appending any unit label.

If you can, please state the reported AUC(0-t) value of CCCCC1(CCCC)CS(=O)(=O)c2ccc(N(C)C)cc2[C@@H](c2ccc(OCc3ccc(C[N+]45CCN(CC4)CC5)cc3)cc2)[C@H]1O . 4.16

* * *

# assayExplanation: Toxicokinetics of LUM001 free form, 13-week oral gavage toxicity study in rats
# Format: in vivo
# assaySetup: both sexes, Charles River CD IGS, rat, plasma, oral; Day 78; 150 mg/kg; Comb
attributeMeasured: Cmax (ng/mL)
The answer is to be given in ng/mL; state only the numeric part.

I would be grateful if you could share the reported Cmax for CCCCC1(CCCC)CS(=O)(=O)c2ccc(N(C)C)cc2[C@@H](c2ccc(OCc3ccc(C[N+]45CCN(CC4)CC5)cc3)cc2)[C@H]1O . 24.1

* * *

# assayExplanation: Pharmacokinetics of LUM001 after oral solution and capsule in dogs
# Type: in vivo, Beagle dogs
# assaySetup: female, Beagle, dog, plasma, po, 7.5 mg/kg, oral capsule 7.5 mg/kg free form, fasted
attributeMeasured: Tmax (h)
Respond with the bare value in h.

// query Tmax value for entry CCCCC1(CCCC)CS(=O)(=O)c2ccc(N(C)C)cc2[C@@H](c2ccc(OCc3ccc(C[N+]45CCN(CC4)CC5)cc3)cc2)[C@H]1O [LUM001] 5

* * *

# assayExplanation: Toxicokinetics of LUM001 free form, 13-week oral gavage toxicity study in rats
# Format: in vivo
# assaySetup: male, Charles River CD IGS, rat, plasma, oral; Day 78; 75.0 mg/kg; M
attributeMeasured: Tmax (h)
Value expressed in h; do not type the unit.

Bench note: what Tmax did CCCCC1(CCCC)CS(=O)(=O)c2ccc(N(C)C)cc2[C@@H](c2ccc(OCc3ccc(C[N+]45CCN(CC4)CC5)cc3)cc2)[C@H]1O [LUM001] show? 8
